- Test system: MUTZ5
- assay: WST-1 proliferation assay, MUTZ5
- Assay type: cell-based, human
- experimentalSetup: WST-1, 48 hours of treatment
Below is a list of entries, each paired with its recorded IC50 value.
Numeric only. Scale: µM

Sample records with IC50:
[
  {
    "compound": "CCc1c2c(nc3ccc(OCc4ccc(N=NN(C)C(=O)OC)cc4)cc13)-c1cc3c(c(=O)n1C2)COC(=O)C3(O)CC (stereo not shown)",
    "testValue": 3.02
  },
  {
    "compound": "COC(=O)N(C)/N=N/c1ccc(Cn2cc(F)c(=O)[nH]c2=O)cc1",
    "testValue": 44.6
  },
  {
    "compound": "COC(=O)N(C)/N=N/c1ccc(CSc2ncnc3nc[nH]c23)cc1",
    "testValue": 31
  }
]

# ---- query compound ----
Request: Give IC50 for COC(=O)N(C)/N=N/c1ccc(COc2cc(/C=C\c3cc(OC)c(OC)c(OC)c3)ccc2OC)cc1
Response: 39.8
